src = paper PMC4791037

experiment_description: CHO cell chronic cytotoxicity assay
Format: cell-based, Chinese hamster
stated_conditions: Chinese hamster, CHO cells, line AS52, clone 11-4-8
measured_property: CC50 at 72 h
Kindly format the answer as number then unit.

Quick one: CC50 at 72 h of O=CC(Br)(Br)Br ? 3.58 µM

###

Tested on: Chinese hamster ovary (CHO) cell line AS52, clone 11-4-8
experiment_description: CHO cell chronic cytotoxicity assay
Format: cell-based
stated_conditions: mean bootstrap value, calculated as (LC50)^−1(10^3); CHO cells, 72 h
measured_property: CTI (±SE), cytotoxicity index (M⁻¹)
// note: answer is a bare numeric in M⁻¹

molecule | study_system | CTI (±SE), cytotoxicity index [M⁻¹]
O=CC(Cl)Cl [DCAL, dichloroacetaldehyde] | Chinese hamster ovary (CHO) cell line AS52, clone 11-4-8 | 35.7
O=CC(Br)(Br)Br [TBAL, tribromoacetaldehyde] | Chinese hamster ovary (CHO) cell line AS52, clone 11-4-8 | 279.8
O=CC(Cl)(Cl)Br [BDCAL, bromodichloroacetaldehyde] | Chinese hamster ovary (CHO) cell line AS52, clone 11-4-8 | 51.1

Tell me the measured CTI (±SE), cytotoxicity index of O=CC(Cl)(Cl)Cl [TCAL, trichloroacetaldehyde] , please. 0.94

Also need O=CCI [IAL, iodoacetaldehyde] , thanks. 170.4

How about this molecule: O=CC(Br)Br [DBAL, dibromoacetaldehyde] 207.5
